test: Microsomal stability; type: in vitro ADME, mouse; details: microsomes only, 3 min
RECORDED METRIC: % remaining (%)
Record the value in %, omitting the unit from your answer.

Query block: Find the recorded % remaining belonging to CC[C@H](C)[C@H]1C(=O)N2CCC[C@@H]2C(=O)O[C@H](C(C)(C)C)C[C@@H](C)C[C@H](O)C(C)(C)C2=N[C@@H](CCC(=O)N[C@@H](Cc3ccc(OC)cc3)C(=O)N(C)[C@@H](C)C(=O)N1C)CS2 and report it.
Result block: 74.10

Query block: Find the recorded % remaining belonging to CC[C@H](C)[C@H]1C(=O)N2CCC[C@@H]2C(=O)O[C@H](C(C)(C)C)C[C@@H](C)C[C@H](O)CC2=N[C@@H](CCC(=O)N[C@@H](Cc3ccc(OC)cc3)C(=O)N(C)[C@@H](C)C(=O)N1C)CS2 and report it.
Result block: 66.60

Query block: Find the recorded % remaining belonging to CC[C@H](C)[C@H]1C(=O)N2CCC[C@H]2C(=O)O[C@H](C(C)(C)C)C[C@@H](C)C[C@H](O)[C@H](C)C2=N[C@@H](CCC(=O)N[C@@H](Cc3ccc(OC)cc3)C(=O)N(C)[C@@H](C)C(=O)N1C)CS2 and report it.
Result block: 87.05

Query block: Find the recorded % remaining belonging to CC[C@H](C)[C@H]1C(=O)N2CCC[C@@H]2C(=O)O[C@H](C(C)(C)C)C[C@@H](C)C[C@H](O)[C@H](C)C2=N[C@H](CCC(=O)N[C@@H](Cc3ccc(OC)cc3)C(=O)N(C)[C@@H](C)C(=O)N1C)CS2 and report it.
Result block: 83.10

----------
assay: Microsomal stability; assay type: in vitro ADME, mouse; conditions: microsomes only, 15 min
RECORDED METRIC: % remaining (%)
Record the value in %, omitting the unit from your answer.

Query block: Find the recorded % remaining belonging to CC[C@H](C)[C@H]1C(=O)N2CCC[C@@H]2C(=O)O[C@H](C(C)(C)C)C[C@@H](C)C[C@H](O)[C@H](C)C2=N[C@H](CCC(=O)N[C@@H](Cc3ccc(OC)cc3)C(=O)N(C)[C@@H](C)C(=O)N1C)CS2 [apratoxin S9 (BN), Apratoxin S9] and report it.
Result block: 45.25

Query block: Find the recorded % remaining belonging to CC[C@H](C)[C@H]1C(=O)N2CCC[C@@H]2C(=O)O[C@H](C(C)(C)C)C[C@@H](C)C[C@H](O)CC2=N[C@@H](CCC(=O)N[C@@H](Cc3ccc(OC)cc3)C(=O)N(C)[C@@H](C)C(=O)N1C)CS2 [apratoxin S7 (BL), Apratoxin S7] and report it.
Result block: 76.55

Query block: Find the recorded % remaining belonging to CC[C@H](C)[C@H]1C(=O)N2CCC[C@H]2C(=O)O[C@H](C(C)(C)C)C[C@@H](C)C[C@H](O)[C@H](C)C2=N[C@@H](CCC(=O)N[C@@H](Cc3ccc(OC)cc3)C(=O)N(C)[C@@H](C)C(=O)N1C)CS2 [apratoxin S4 (BK), Apratoxin S4] and report it.
Result block: 87.20

Query block: Find the recorded % remaining belonging to CC[C@H](C)[C@H]1C(=O)N2CCC[C@@H]2C(=O)O[C@H](C(C)(C)C)C[C@@H](C)C[C@H](O)C(C)(C)C2=N[C@@H](CCC(=O)N[C@@H](Cc3ccc(OC)cc3)C(=O)N(C)[C@@H](C)C(=O)N1C)CS2 [apratoxin S8 (BM), Apratoxin S8] and report it.
Result block: 63.45
